# Tested on: Nasturtium officinale (NAAOF)
# Procedure Text: Example B1 herbicidal action, post-emergence, 96-cell seed trays, climatic chamber
# Type: in vivo
# Design: scale not given here
# Test Parameters: Application post-emergence, 1000 mg/l spray equivalent to 1000 g/ha, evaluated after 9 days (100=total damage to plant, 0=no damage to plant)
// damage to plant, Nasturtium officinale (NAAOF) lookup, one value per entry
Just the number, please.

CC(C)C(=O)Oc1c(-c2c(F)ccc(F)c2Cl)c(=O)n(C)c2nc(Cl)cnc12	0
Cc1ccc(F)c(-c2c(O)c3nccnc3[nH]c2=O)c1Cl	3
CCn1c(=O)c(-c2c(F)ccc(F)c2Cl)c(OC(=O)C(C)C)c2nccnc21	8

Below: the item to evaluate.
Complete the entry with damage to plant, Nasturtium officinale (NAAOF) for CCC(=O)Oc1c(-c2c(Cl)cccc2Cl)c(=O)[nH]c2nccnc12
3

* * *

// damage to plant, Nasturtium officinale (NAAOF) lookup, one value per entry
# System: Nasturtium officinale (NAAOF)
# Procedure Text: Example B1 herbicidal action, post-emergence, 96-cell seed trays, climatic chamber
# Type: in vivo
# Design: scale not given here
# Test Parameters: Application post-emergence, 1000 mg/l spray equivalent to 1000 g/ha, evaluated after 9 days (100=total damage to plant, 0=no damage to plant)
Just the number, please.

Guide cases for damage to plant, Nasturtium officinale (NAAOF), answers given:
CCC(CC)C(=O)Oc1c(-c2c(F)ccc(F)c2Cl)c(=O)n(C)c2nccnc12	5
Cc1ccccc1-c1c(O)c2nccnc2[nH]c1=O	0

Complete the entry with damage to plant, Nasturtium officinale (NAAOF) for CCn1c(=O)c(-c2c(Cl)cccc2C(F)(F)F)c(OC(=O)C(C)C)c2nccnc21
6

Complete the entry with damage to plant, Nasturtium officinale (NAAOF) for CCn1c(=O)c(-c2ccccc2OC)c(OC(=O)C(C)C)c2nccnc21
4

Complete the entry with damage to plant, Nasturtium officinale (NAAOF) for Cn1c(=O)c(-c2c(F)ccc(F)c2Cl)c(OC(=O)c2ccccc2)c2nccnc21
5

Complete the entry with damage to plant, Nasturtium officinale (NAAOF) for COc1ccc(-c2c(O)c3nccnc3[nH]c2=O)c(OC)c1
2

Complete the entry with damage to plant, Nasturtium officinale (NAAOF) for COCCn1c(=O)c(-c2ccc(Cl)cc2Cl)c(OC(C)=O)c2nccnc21
2

* * *

# System: Nasturtium officinale (NAAOF)
# Procedure Text: Example B1 herbicidal action, post-emergence, 96-cell seed trays, climatic chamber
# Format: in vivo
# Set-up: scale not given here
# Test Parameters: Application post-emergence, 1000 mg/l spray equivalent to 1000 g/ha, evaluated after 9 days (100=total damage to plant, 0=no damage to plant)
Property Name: damage to plant, Nasturtium officinale (NAAOF)

Guide cases for damage to plant, Nasturtium officinale (NAAOF), answers given:
Cc1cc(C)c(-c2c(O)c3nccnc3[nH]c2=O)c(C)c1	3
COc1ccccc1-c1c(OC(=O)C(C)C)c2nccnc2n(C)c1=O	5
O=c1[nH]c2ncc(Cl)nc2c(O)c1-c1c(Cl)cccc1Cl	0
CCn1c(=O)c(-c2cc(C(F)(F)F)cc(C(F)(F)F)c2)c(OC(C)=O)c2nccnc21	4
CC(C)Cn1c(=O)c(-c2c(F)ccc(F)c2Cl)c(OC(=O)C(C)(C)C)c2nccnc21	0

Complete the entry with damage to plant, Nasturtium officinale (NAAOF) for CC(C)C(=O)Oc1c(-c2c(F)ccc(F)c2Cl)c(=O)n(C)c2ncc(Cl)nc12
0

Complete the entry with damage to plant, Nasturtium officinale (NAAOF) for Cn1c(=O)c(-c2ccc3ccccc3c2)c(OC(=O)C(C)(C)C)c2nccnc21
3

Complete the entry with damage to plant, Nasturtium officinale (NAAOF) for Cn1c(=O)c(-c2cc(C(F)(F)F)ccc2Cl)c(OC(=O)C(C)(C)C)c2nccnc21
6

Complete the entry with damage to plant, Nasturtium officinale (NAAOF) for CC(=O)Oc1c(-c2c(Cl)cc(C(F)(F)F)cc2Cl)c(=O)[nH]c2nccnc12
7
